Source: ChEMBL document CHEMBL2390835

Experiment: Selectivity index, ratio of IC50 for rat L6 cells to IC50 for chloroquine-resistant erythrocytic stage of Plasmodium falciparum K1
Assay type: toxicity, cell-based
Conditions: read-out: Ratio IC50
Threshold check on selectivity ratio: strictly below 40 is label 1; on or above 40 is label 0.

Please review the following examples before continuing.
{"columns": ["structureAsSmiles", "assignedCategory"],
 "data": [
  ["Cn1c2nc3ccc(Br)cc3c-2c(NCCCNC(=O)Nc2ccccc2)c2cc(Cl)ccc21", "label 1"],
  ["COC(=O)c1ccc2nc3n(C)c4ccccc4c(NCCCNC(=O)Nc4ccccc4)c-3c2c1", "label 1"],
  ["COC(=O)c1ccc2c(c1)c(NCCCNC(=O)Nc1ccccc1)c1c3ccccc3nc-1n2C", "label 1"],
  ["COC(=O)c1ccc2nc3n(C)c4ccc(Cl)cc4c(NCCCN)c-3c2c1", "label 1"],
  ["COC(=O)c1ccc2nc3n(C)c4ccccc4c(NCCCN)c-3c2c1", "label 1"],
  ["COC(=O)c1ccc2nc3n(C)c4ccc(C(=O)OC)cc4c(NCCCNC(=O)Nc4ccccc4)c-3c2c1", "label 0"]
]}

Turning to the following compound.
Exercise: Please determine if `COC(=O)c1ccc2c(c1)c(NCCCN)c1c3cc(Br)ccc3nc-1n2C` is below 40 in terms of selectivity ratio.
Key: label 0

----------
System: Plasmodium falciparum
Assay: Resistance index, ratio of IC50 for chloroquine-resistant erythrocytic stage of Plasmodium falciparum K1 to IC50 for chloroquine-sensitive erythrocytic stage of Plasmodium falciparum NF54
Type: functional
Ratio IC50 values by entry
Enter a number only.

{"columns": ["molecule", "Ratio IC50"],
 "data": [
  ["COC(=O)c1ccc2nc3n(C)c4ccc(Cl)cc4c(NCCCNC(=O)Nc4ccccc4)c-3c2c1", 1.71],
  ["COC(=O)c1ccc2c(c1)c(NCCCN)c1c3ccccc3nc-1n2C", 2.67],
  ["COC(=O)c1ccc2c(c1)c(NCCCNC(=O)Nc1ccccc1)c1c3ccccc3nc-1n2C", 13.5],
  ["Cn1c2nc3ccccc3c-2cc2ccccc21 [NEOCRYPTOLEPINE]", 1.07],
  ["COC(=O)c1ccc2c(c1)c(NCCCNC(=S)Nc1ccccc1)c1c3ccccc3nc-1n2C", 8.89],
  ["COC(=O)c1ccc2nc3n(C)c4ccc(Cl)cc4c(NCCCN)c-3c2c1", 2.67]
]}

Exercise: State its Ratio IC50 for this molecule: `COC(=O)c1ccc2nc3n(C)c4ccc(C(=O)OC)cc4c(NCCCNC(=O)Nc4ccccc4)c-3c2c1`
Key: 2.44

Exercise: State its Ratio IC50 for this molecule: `COC(=O)c1ccc2nc3n(C)c4ccccc4c(NCCCNC(=S)Nc4ccccc4)c-3c2c1`
Key: 10.7

Exercise: State its Ratio IC50 for this molecule: `Cn1c2nc3ccc(Br)cc3c-2c(NCCCNC(=O)Nc2ccccc2)c2cc(Cl)ccc21`
Key: 3

Exercise: State its Ratio IC50 for this molecule: `COC(=O)c1ccc2c(c1)c(NCCCNC(=O)Nc1ccccc1)c1c3cc(Br)ccc3nc-1n2C`
Key: 2.75

Exercise: State its Ratio IC50 for this molecule: `COC(=O)c1ccc2c(c1)c(NCCCN)c1c3cc(Br)ccc3nc-1n2C`
Key: 3.5

----------
System: Plasmodium falciparum
Test: Resistance index, ratio of IC50 for chloroquine-resistant erythrocytic stage of Plasmodium falciparum K1 to IC50 for chloroquine-sensitive erythrocytic stage of Plasmodium falciparum NF54
Assay type: functional
Ratio IC50 values by entry
Enter a number only.

Consider the reported Ratio IC50 for these compounds:
{"columns": ["structureAsSmiles", "Ratio IC50"],
 "data": [
  ["Cn1c2nc3ccc(Br)cc3c-2c(NCCCN)c2cc(Cl)ccc21", 8.89],
  ["COC(=O)c1ccc2nc3n(C)c4ccccc4c(NCCCNC(=O)Nc4ccccc4)c-3c2c1", 4.71],
  ["COC(=O)c1ccc2nc3n(C)c4ccc(C(=O)OC)cc4c(NCCCN)c-3c2c1", 1.25],
  ["COC(=O)c1ccc2nc3n(C)c4ccccc4c(NCCCN)c-3c2c1", 1.22]
]}

Exercise: State its Ratio IC50 for this compound: `COC(=O)c1ccc2nc3n(C)c4ccc(C(=O)OC)cc4c(NCCCNC(=S)Nc4ccccc4)c-3c2c1`
Key: 3.5
